Numbers sourced from ChEMBL document CHEMBL5338774.

assay: Octanol/PBS distribution coefficient, logD of compound at pH 7.4 incubated for 10 mins under shaking condition by gamma counter analysis; type: physicochemical
Quick reference for logD at 10 min among some compounds
No unit in the answer, only the number.

# Input smiles, logD at 10 min
rows = [
    ("[11CH3]Oc1cccc(CNC(=O)c2nc3ccc(F)c(OCCc4ccc(C(=O)O)cc4)c3c(=O)[nH]2)c1", 1.16),
    ("Cc1cc(CNC(=O)c2nc3ccc(F)c(OCC[18F])c3c(=O)[nH]2)ccc1F", 3.09),
]

Please find the next compound below.
The compound listed as Cc1cc(CNC(=O)c2nc3ccc(F)c(OCCc4ccc(O[11CH3])cc4)c3c(=O)[nH]2)ccc1F shows logD at 10 min equal to 3.76
